test-target: hNET (Homo sapiens, UniProt P23975)
Sequence (P23975 whole entry): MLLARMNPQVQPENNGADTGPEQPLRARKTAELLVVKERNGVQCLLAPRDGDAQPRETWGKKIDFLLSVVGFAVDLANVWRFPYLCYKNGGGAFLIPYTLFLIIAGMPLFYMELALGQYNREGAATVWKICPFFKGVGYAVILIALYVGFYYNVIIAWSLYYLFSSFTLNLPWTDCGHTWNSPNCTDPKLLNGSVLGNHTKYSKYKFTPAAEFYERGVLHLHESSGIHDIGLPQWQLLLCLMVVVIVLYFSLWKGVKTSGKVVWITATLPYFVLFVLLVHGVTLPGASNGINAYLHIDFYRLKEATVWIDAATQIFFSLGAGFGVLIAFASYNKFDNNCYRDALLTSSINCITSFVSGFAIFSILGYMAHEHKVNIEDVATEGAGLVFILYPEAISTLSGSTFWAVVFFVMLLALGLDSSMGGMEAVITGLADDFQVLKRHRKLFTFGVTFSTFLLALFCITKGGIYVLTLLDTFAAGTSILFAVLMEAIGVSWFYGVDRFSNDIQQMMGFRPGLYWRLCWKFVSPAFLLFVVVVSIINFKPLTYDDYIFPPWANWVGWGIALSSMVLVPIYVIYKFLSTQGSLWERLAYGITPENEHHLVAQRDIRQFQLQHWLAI
Type: cell-based
measurement-setup: read-out: IC50, reuptake inhibition, hNET, SK-N-BE(2)C cells
endpoint-label: pIC50
Field pIC50 (float): negative decimal logarithm of the concentration in molar.

Problem: Quick check: pIC50 on hNET (Homo sapiens, UniProt P23975), item c1ccc(CCCN2CCN(CCOC(c3ccccc3)c3ccccc3)CC2)cc1 ?
Solution: 5.46

---

test-target: rNET (Rattus norvegicus)
Sequence (Q63380 1-617): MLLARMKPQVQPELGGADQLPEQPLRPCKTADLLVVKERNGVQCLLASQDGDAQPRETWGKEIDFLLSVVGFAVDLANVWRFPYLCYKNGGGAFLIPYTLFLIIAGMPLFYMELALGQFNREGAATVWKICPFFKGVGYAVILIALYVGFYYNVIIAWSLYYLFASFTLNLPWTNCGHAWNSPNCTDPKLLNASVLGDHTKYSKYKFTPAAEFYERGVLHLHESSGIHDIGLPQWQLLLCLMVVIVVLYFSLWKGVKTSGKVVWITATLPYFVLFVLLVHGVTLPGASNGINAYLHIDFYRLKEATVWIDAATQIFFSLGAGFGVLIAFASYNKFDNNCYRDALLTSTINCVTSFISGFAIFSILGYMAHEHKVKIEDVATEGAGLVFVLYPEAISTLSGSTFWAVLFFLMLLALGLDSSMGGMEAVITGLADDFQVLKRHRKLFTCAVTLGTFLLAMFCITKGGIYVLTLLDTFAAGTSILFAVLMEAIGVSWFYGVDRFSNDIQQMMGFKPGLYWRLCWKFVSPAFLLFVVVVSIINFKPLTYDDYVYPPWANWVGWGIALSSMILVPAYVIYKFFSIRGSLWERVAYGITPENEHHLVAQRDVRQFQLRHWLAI
endpoint-label: IC50
Record the result as number plus unit.

Problem: Quick check: IC50 on rNET (Rattus norvegicus), item c1ccc(CCCN2CCN(CCOC(c3ccccc3)c3ccccc3)CC2)cc1 ?
Solution: 299 nM
